The entries below come with measured Activity values attached.
tested on: HT-29; experiment: Effect on VEGFR2 protein expression in human HT-29 cells assessed as VEGFR2 level at 5 nM after 48 hrs by ELISA; format: functional

CPD_SMILES	Activity / %
COc1ccc(NC(=O)N[C@H]2CCc3cc(OC)c(OC)c(OC)c3-c3ccc(OC)c(=O)cc32)cc1	95
COc1cc2c(c(OC)c1OC)-c1ccc(OC)c(=O)cc1[C@@H](NC(=O)Nc1ccc(F)cc1Cl)CC2	15
COc1cc2c(c(OC)c1OC)-c1ccc(OC)c(=O)cc1[C@@H](NC(=O)Nc1ccc(F)cc1)CC2	63
COc1cc2c(c(OC)c1OC)-c1ccc(OC)c(=O)cc1[C@@H](NC(=O)Nc1cccc(Cl)c1)CC2	15

* * *

system: HT-29; assay: Induction of apoptosis in human HT-29 cells assessed as necrotic cells at 5 nM after 48 hrs by Annexin V-FITC staining-based flow cytometric analysis (reference value: 2 +/- 6%); type: functional
The entries below come with measured Activity values attached.
READOUT_TYPE: Activity (%)

CPD_SMILES	READOUT_TYPE	ENDPOINT_VALUE
COc1cc2c(c(OC)c1OC)-c1ccc(OC)c(=O)cc1[C@@H](NC(=O)Nc1ccc(F)cc1)CC2	Activity	2
COc1ccc(NC(=O)N[C@H]2CCc3cc(OC)c(OC)c(OC)c3-c3ccc(OC)c(=O)cc32)cc1	Activity	1
COc1cc2c(c(OC)c1OC)-c1ccc(OC)c(=O)cc1[C@@H](NC(=O)Nc1cccc(Cl)c1)CC2	Activity	1
COc1cc2c(c(OC)c1OC)-c1ccc(OC)c(=O)cc1[C@@H](NC(=O)Nc1ccc(F)cc1Cl)CC2	Activity	1

* * *

tested on: HT-29; test: Induction of apoptosis in human HT-29 cells assessed as viable cells at 5 nM after 48 hrs by Annexin V-FITC staining-based flow cytometric analysis (reference value: 82 +/- 1%); type: functional; settings: HT-29, 48 h, read-out: Activity
The entries below come with measured viability at 0.005 µM values attached.
READOUT_TYPE: viability at 0.005 µM (%)

CPD_SMILES	ENDPOINT_VALUE
COc1ccc(NC(=O)N[C@H]2CCc3cc(OC)c(OC)c(OC)c3-c3ccc(OC)c(=O)cc32)cc1	64
COc1cc2c(c(OC)c1OC)-c1ccc(OC)c(=O)cc1[C@@H](NC(=O)Nc1ccc(F)cc1Cl)CC2	46
COc1cc2c(c(OC)c1OC)-c1ccc(OC)c(=O)cc1[C@@H](NC(=O)Nc1cccc(Cl)c1)CC2	62
COc1cc2c(c(OC)c1OC)-c1ccc(OC)c(=O)cc1[C@@H](NC(=O)Nc1ccc(F)cc1)CC2	51

* * *

test system: HT-29; experiment: Effect on VEGF gene expression in human HT-29 cells assessed as VEGF level at 5 nM after 48 hrs by RT-qPCR analysis; format: functional
READOUT_TYPE: Activity (%)

CPD_SMILES	UNIT_INFO	ENDPOINT_VALUE
COc1cc2c(c(OC)c1OC)-c1ccc(OC)c(=O)cc1[C@@H](NC(=O)Nc1cccc(Cl)c1)CC2	%	95
COc1cc2c(c(OC)c1OC)-c1ccc(OC)c(=O)cc1[C@@H](NC(=O)Nc1ccc(F)cc1Cl)CC2	%	64
COc1ccc(NC(=O)N[C@H]2CCc3cc(OC)c(OC)c(OC)c3-c3ccc(OC)c(=O)cc32)cc1	%	70
COc1cc2c(c(OC)c1OC)-c1ccc(OC)c(=O)cc1[C@@H](NC(=O)Nc1ccc(F)cc1)CC2	%	59
